- test method notes: Example 1: population PK after single IV bolus in healthy male subjects
- Type: in vivo
- test parameters: human, plasma; healthy male subjects, IV bolus; read-out: volume of distribution
value kind: Vd (L)
Quick note: give the figure in L, leave out the unit.

Prompt line: Name the reported Vd value associated with the compound CNC(=O)c1cnn(-c2nc(N)c3ncn([C@@H]4O[C@H](CO)[C@@H](O)[C@H]4O)c3n2)c1
Response line: 83.3

====

- tested system: A2A-adenosine receptors (Rattus norvegicus)
- Construct: rat brain striatal membranes; from tissue; host or cells: rat brain striatum membranes
- Sequence (P30543 whole entry): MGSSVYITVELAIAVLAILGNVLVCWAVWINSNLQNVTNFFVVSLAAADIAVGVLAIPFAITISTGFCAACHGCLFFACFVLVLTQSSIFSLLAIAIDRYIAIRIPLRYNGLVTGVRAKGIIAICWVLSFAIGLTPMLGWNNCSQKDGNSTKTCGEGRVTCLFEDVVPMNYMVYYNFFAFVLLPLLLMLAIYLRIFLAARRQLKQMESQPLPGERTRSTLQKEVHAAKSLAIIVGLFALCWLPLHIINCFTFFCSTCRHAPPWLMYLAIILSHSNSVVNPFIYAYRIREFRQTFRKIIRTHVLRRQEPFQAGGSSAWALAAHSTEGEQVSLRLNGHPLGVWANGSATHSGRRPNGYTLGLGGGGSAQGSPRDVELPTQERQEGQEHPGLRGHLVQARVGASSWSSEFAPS
- test method notes: Membrane binding, displacement of [3H]-ZM241385, rat brain striatal membranes
- test parameters: Rat striatum, mean ± SE, read-out: Membrane Binding, affinity [Ki]
value kind: pKi
FYI, pKi means -log10 of a concentration in mol per litre.

Prompt line: Fill blank: measured pKi of the molecule CNC(=O)c1cnn(-c2nc(N)c3ncn([C@@H]4O[C@H](CO)[C@@H](O)[C@H]4O)c3n2)c1 is ____.
Response line: 6.50

====

- System: human neutrophils
- test method notes: Superoxide anion production, human neutrophils
- Format: cell-based
- test parameters: Neutrophil, mean ± SE, read-out: Superoxide anion Production, potency
value kind: pIC50
The quantity pIC50 is defined as the negative base-10 logarithm of the molar concentration.

Prompt line: Bench note: what pIC50 did CNC(=O)c1cnn(-c2nc(N)c3ncn([C@@H]4O[C@H](CO)[C@@H](O)[C@H]4O)c3n2)c1 show?
Response line: 6.48

====

- test method notes: Solubility in water
- Assay type: physicochemical
value kind: solubility

Prompt line: Value lookup for solubility; key = CNC(=O)c1cnn(-c2nc(N)c3ncn([C@@H]4O[C@H](CO)[C@@H](O)[C@H]4O)c3n2)c1 [regadenoson]
Response line: ~50 µg/mL

====

- test method notes: Example 2: population PK in subjects undergoing cardiac catheterization
- Format: in vivo
- test parameters: both sexes, human, plasma, IV bolus, read-out: volume of distribution
value kind: Vd (L)
Give your result in L as a bare value.

Prompt line: Requested read-out: Vd. Entry: CNC(=O)c1cnn(-c2nc(N)c3ncn([C@@H]4O[C@H](CO)[C@@H](O)[C@H]4O)c3n2)c1 [regadenoson]
Response line: 68.1

====

- tested system: A2A-adenosine receptors (Rattus norvegicus)
- Construct: rat brain striatal membranes; from tissue; host or cells: rat brain striatum membranes
- test method notes: Membrane binding, displacement of [3H]-CG-S21680, rat brain striatal membranes
- test parameters: Rat striatum, mean ± SE, read-out: Membrane Binding, affinity [Ki]
value kind: Ki (nM)
# output: bare number, implied unit nM

Prompt line: Report Ki for CNC(=O)c1cnn(-c2nc(N)c3ncn([C@@H]4O[C@H](CO)[C@@H](O)[C@H]4O)c3n2)c1 please.
Response line: 43

====

- Test system: human platelets
- test method notes: Cell calcium mobilization, human platelets
- Format: cell-based
- test parameters: Platelet, mean ± SE, read-out: Cell calcium Mobilization, potency
value kind: pIC50
Formally, pIC50 is defined as -log10 of the concentration c, with c in mol/L.

Prompt line: Reported pIC50 for CNC(=O)c1cnn(-c2nc(N)c3ncn([C@@H]4O[C@H](CO)[C@@H](O)[C@H]4O)c3n2)c1 [regadenoson] : what is it?
Response line: 6.97
